- Tested on: NCI/ADR-RES
- run_description: NCI tumour cell line growth inhibition, 48 h
Calls of active or inactive are those of the source. No stated cut-off is given here; in the data, active = GI50 up to about 1.1 µM and inactive = higher.
Outcomes: t for active, f for inactive

> print(dat)
                                    molecule  assigned.class
 1  O=C1OC2C(O)COC2(O)C1(O)C(C[N+](=O)[O-])c1ccc(Cl)cc1 (stereo not drawn)               f
 2             CCOP(=O)(OCC)/C(F)=C/c1ccccc1               f
 3  COc1ccc2c3c1O[C@H]1C[C@@H](O)C=C[C@@]31CCN(C)C2               f
 4  O=C1C2C(c3ccccc3)NC(c3ccccc3)C1C(c1ccccc1)NC2c1ccccc1 (stereo not drawn)               f
 5       Cc1nc(-c2ccc(Cl)cc2)cn2c1nc1ccccc12               f
 6  O=C1CN(C(=O)C2CCCN2C(=O)C2CCCN2)C(=O)CN1 (stereo not drawn)               f
 7    CCOC(=O)N1CCN(c2ccc3c(C)cc(C)nc3n2)CC1               f
 8  CC(C)CC1[C@@H](OCc2ccccc2)COS(=O)N1Cc1ccccc1 (stereo partly drawn)               f
 9  C[C@]12CC[C@@H]3c4ccc(OS(N)(=O)=O)cc4CC[C@H]3[C@@H]1CCC2=O [EMATE]               f
10         COc1ccc(/C=C/c2cc(OC)cc(=O)o2)cc1               f
11  C=CC(C)(C)n1cc(C2=C(O)C(=O)C(c3cn(C(C)(C)C=C)c4ccccc34)=C(O)C2=O)c2ccccc21               f
12  COC(=O)[C@H](COC(=O)/C=C/c1ccc(OC(C)=O)c(OC(C)=O)c1)NC(=O)/C=C/c1ccc(OC(C)=O)c(OC(C)=O)c1               f
13  CC(=O)NNc1nc(C)c(C(/C=C/c2cccc([N+](=O)[O-])c2)=N/NC(=S)NN)s1               f
14  COc1ccc2[nH]cc(CN3CCC(CO)(c4ccccc4)CC3)c2c1               f
15           CCOP(=O)(/C=C/n1ccc(N)nc1=O)OCC               f
16  COc1cc2c(cc1OC)C1C=NC(C2)c2cc(OC)c(OC)cc21 (stereo not drawn)               f
17  COC(=O)Nc1nc2cc(C(=O)c3ccc[nH]3)ccc2[nH]1               t
18  C=C1C(=O)O[C@@H]2C[C@@]3(C)CCC[C@H](C)C3=C[C@H]12               f

###

- Test system: KM12
- run_description: NCI tumour cell line growth inhibition, 48 h
The source made the active and inactive calls. No stated cut-off is given here; in the data, active = GI50 up to about 1.1 µM and inactive = higher.
measured_property: GI50

> print(dat)
                                    compound                 value
 1                      O=c1cc[nH]c(=O)[nH]1     237 µM (inactive)
 2     NC(=O)C(=Cc1ccc(CP(=O)(O)O)cc1)C(N)=O   > 100 µM (inactive)
 3      Cn1c2c(c3c(=O)[nH]ncc31)CCc1ccccc1-2      23 µM (inactive)
 4             Cc1ccc(NC(=O)CCc2nnc(N)o2)cc1   > 100 µM (inactive)
 5  COC(=O)c1ccccc1/C=C1\Cc2cc(C)cc(C)c2C1=O   > 100 µM (inactive)
 6         Cc1ccc2c(O)cc(-c3cccc(Cl)c3)nc2n1  < 0.0196 µM (active)
 7     CNS(=O)(=O)NN(C)S(=O)(=O)c1ccc(Br)cc1   > 100 µM (inactive)
 8   O=c1cc(-c2ccccc2)[nH]c2ccc(N3CCCC3)cc12     0.039 µM (active)
 9  Cc1cn(C2CC(O)C(CO[Si](C)(C)C(C)(C)C)OC2OC(C)C)c(=O)[nH]c1=O (stereo unspecified)    49.5 µM (inactive)
10  COC(=O)Nc1nc2cc(C(=O)c3ccc[nH]3)ccc2[nH]1      0.49 µM (active)
11  Cc1nc2c(cc1C(=O)N/N=C/c1ccc([N+](=O)[O-])cc1)c(=O)n(C)c(=O)n2C   > 100 µM (inactive)

Recorded values, source ChEMBL document CHEMBL1201862.
